Origin of the recorded values: the supplement of paper PMC12076712

Biological target: UniProt O00444
Sequence (O00444 whole entry): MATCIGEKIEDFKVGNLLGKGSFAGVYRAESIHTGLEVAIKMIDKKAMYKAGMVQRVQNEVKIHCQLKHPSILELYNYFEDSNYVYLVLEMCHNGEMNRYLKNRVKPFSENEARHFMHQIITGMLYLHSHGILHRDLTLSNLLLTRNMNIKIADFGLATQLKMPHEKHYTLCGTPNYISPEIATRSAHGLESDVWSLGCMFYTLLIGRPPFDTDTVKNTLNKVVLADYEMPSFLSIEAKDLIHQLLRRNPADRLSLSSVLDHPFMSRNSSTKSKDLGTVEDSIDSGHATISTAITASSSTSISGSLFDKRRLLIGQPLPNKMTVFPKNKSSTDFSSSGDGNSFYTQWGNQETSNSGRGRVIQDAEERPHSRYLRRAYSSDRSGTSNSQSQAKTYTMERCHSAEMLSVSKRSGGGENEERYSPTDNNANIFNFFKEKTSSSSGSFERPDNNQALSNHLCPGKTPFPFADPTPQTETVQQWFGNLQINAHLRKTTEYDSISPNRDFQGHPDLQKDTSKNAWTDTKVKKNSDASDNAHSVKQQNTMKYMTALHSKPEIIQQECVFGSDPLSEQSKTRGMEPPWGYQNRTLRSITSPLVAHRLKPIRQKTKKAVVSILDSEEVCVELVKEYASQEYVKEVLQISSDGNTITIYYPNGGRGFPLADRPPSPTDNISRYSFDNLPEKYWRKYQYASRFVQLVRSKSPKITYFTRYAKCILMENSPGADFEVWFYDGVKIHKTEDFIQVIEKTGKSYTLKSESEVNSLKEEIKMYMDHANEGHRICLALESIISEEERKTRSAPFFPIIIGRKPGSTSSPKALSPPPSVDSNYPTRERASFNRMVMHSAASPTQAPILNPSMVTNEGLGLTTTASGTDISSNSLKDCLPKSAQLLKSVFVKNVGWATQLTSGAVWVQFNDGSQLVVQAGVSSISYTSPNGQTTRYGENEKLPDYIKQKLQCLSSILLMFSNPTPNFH
Test: pIC50, kinobeads binding competition
Details: cell material: Lysate mix
MEASUREMENT LABEL: pIC50

> print(dat)
                                   compound     target.desc  reported.result
1  C#CCNC(=O)c1cc(Nc2cc(C3CC3)[nH]n2)nc(N2CCN(Cc3ccc(S(=O)(=O)F)cc3)CC2)n1  UniProt O00444             6.02
2  Cc1cc(Nc2cc(C(=O)NCCNC(=O)OC3CC/C=C/CCC3)nc(N3CCN(Cc4ccc(S(=O)(=O)F)cc4)CC3)n2)n[nH]1 (stereo unspecified)  UniProt O00444           < 4.52
3  O=C(NCCNC(=O)c1cc(Nc2cc(C3CC3)[nH]n2)nc(N2CCN(Cc3ccc(S(=O)(=O)F)cc3)CC2)n1)OC1CC/C=C/CCC1 (stereo unspecified)  UniProt O00444           < 4.52
4  C#CCNC(=O)c1cc(Nc2cc(C)[nH]n2)nc(N2CCN(Cc3ccc(S(=O)(=O)F)cc3)CC2)n1  UniProt O00444             5.39
5  CCNC(=O)c1cc(Nc2cc(C3CC3)[nH]n2)nc(N2CCN(Cc3ccc(S(=O)(=O)F)cc3)CC2)n1  UniProt O00444             5.81
6  CCNC(=O)c1cc(Nc2cc(C)[nH]n2)nc(N2CCN(Cc3ccc(S(=O)(=O)F)cc3)CC2)n1  UniProt O00444             5.97

###

In this section we review reported pIC50 values for a set of compounds.
Target: UniProt Q9Y2U5
Sequence (Q9Y2U5 whole entry): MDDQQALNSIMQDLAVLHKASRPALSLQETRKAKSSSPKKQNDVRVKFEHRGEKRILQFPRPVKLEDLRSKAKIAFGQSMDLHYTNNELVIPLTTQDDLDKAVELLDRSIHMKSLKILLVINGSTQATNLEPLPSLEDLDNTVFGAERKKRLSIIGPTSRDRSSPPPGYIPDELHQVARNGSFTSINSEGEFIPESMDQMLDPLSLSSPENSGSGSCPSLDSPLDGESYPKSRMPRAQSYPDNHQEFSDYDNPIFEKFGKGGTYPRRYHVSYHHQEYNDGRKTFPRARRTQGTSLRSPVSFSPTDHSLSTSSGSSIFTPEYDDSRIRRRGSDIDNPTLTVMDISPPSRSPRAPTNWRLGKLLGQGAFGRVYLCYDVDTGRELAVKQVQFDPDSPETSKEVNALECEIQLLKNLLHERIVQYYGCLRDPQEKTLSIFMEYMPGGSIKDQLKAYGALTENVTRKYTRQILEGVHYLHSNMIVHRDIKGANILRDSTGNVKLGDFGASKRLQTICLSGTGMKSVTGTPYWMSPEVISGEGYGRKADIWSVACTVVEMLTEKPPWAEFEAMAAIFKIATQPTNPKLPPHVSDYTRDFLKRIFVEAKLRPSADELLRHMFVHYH
Test: pIC50, kinobeads binding competition
Details: cell material: Lysate mix
MEASUREMENT LABEL: pIC50

> print(dat)
                                   compound     target.desc  value.comparator  reported.result
1  O=C(NCCNC(=O)c1cc(Nc2cc(C3CC3)[nH]n2)nc(N2CCN(Cc3ccc(S(=O)(=O)F)cc3)CC2)n1)OC1CC/C=C/CCC1 (stereo unspecified)  UniProt Q9Y2U5                 <             4.52
2  CCNC(=O)c1cc(Nc2cc(C)[nH]n2)nc(N2CCN(Cc3ccc(S(=O)(=O)F)cc3)CC2)n1  UniProt Q9Y2U5                 =             4.67
3  C#CCNC(=O)c1cc(Nc2cc(C3CC3)[nH]n2)nc(N2CCN(Cc3ccc(S(=O)(=O)F)cc3)CC2)n1  UniProt Q9Y2U5                 =             5.47
4  CCNC(=O)c1cc(Nc2cc(C3CC3)[nH]n2)nc(N2CCN(Cc3ccc(S(=O)(=O)F)cc3)CC2)n1  UniProt Q9Y2U5                 =             5.29
5  C#CCNC(=O)c1cc(Nc2cc(C)[nH]n2)nc(N2CCN(Cc3ccc(S(=O)(=O)F)cc3)CC2)n1  UniProt Q9Y2U5                 =             4.82
6  Cc1cc(Nc2cc(C(=O)NCCNC(=O)OC3CC/C=C/CCC3)nc(N3CCN(Cc4ccc(S(=O)(=O)F)cc4)CC3)n2)n[nH]1 (stereo unspecified)  UniProt Q9Y2U5                 <             4.52
